studySystem: Recombinant human cathepsin A (Homo sapiens, UniProt P10619)
Construct: Recombinant human cathepsin A (residues 29-480, with a C-terminal 10-His tag); 10-His (C); purchased R&D Systems 1049-SE
Sequence (P10619 29-312 limits assumed): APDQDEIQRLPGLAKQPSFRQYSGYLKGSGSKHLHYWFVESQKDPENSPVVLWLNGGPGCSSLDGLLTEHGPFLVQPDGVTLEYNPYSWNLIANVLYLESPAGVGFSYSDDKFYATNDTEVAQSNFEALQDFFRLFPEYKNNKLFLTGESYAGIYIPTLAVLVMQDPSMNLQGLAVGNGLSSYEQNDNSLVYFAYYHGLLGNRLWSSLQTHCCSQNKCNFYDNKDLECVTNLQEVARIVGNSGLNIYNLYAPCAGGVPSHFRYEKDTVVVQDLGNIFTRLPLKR
Sequence (P10619 327-480 limits assumed): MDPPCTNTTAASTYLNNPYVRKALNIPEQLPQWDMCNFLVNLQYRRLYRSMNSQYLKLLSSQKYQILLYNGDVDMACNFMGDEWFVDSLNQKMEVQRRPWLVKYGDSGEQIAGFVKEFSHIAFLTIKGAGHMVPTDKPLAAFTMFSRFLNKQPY
protocolDetails: Cathepsin A inhibitory activity
Type: biochemical
recordedConditions: read-out: Activity (2): Cathepsin A inhibitory activity, IC50 class
pIC50: −log10 of the molar value.
The entries below are paired with their reported pIC50.

// below: answered compounds
{"compound": "CC(C)CC(CC(=O)O)NC(=O)c1cc(O)n(-c2ccccc2)n1 (centres unmarked)", "measuredMetric": "pIC50", "result": "6.00 to 7.00"}
{"compound": "O=C(O)C[C@H](NC(=O)c1cc(O)n(-c2ccccc2)n1)c1ccccc1C(F)(F)F", "measuredMetric": "pIC50", "result": "6.00 to 7.00"}
{"compound": "Cc1ccc(C)c(-n2nc(C(=O)NC(CC(=O)O)c3ccc(-c4ccccc4)cc3)cc2O)c1 (centres unmarked)", "measuredMetric": "pIC50", "result": "6.00 to 7.00"}
{"compound": "O=C(O)C[C@H](NC(=O)c1cc(O)n(-c2ccccc2F)n1)c1ccccc1Br", "measuredMetric": "pIC50", "result": "> 7.00"}
{"compound": "COc1ccc(C(CC(=O)O)NC(=O)c2cc(O)n(-c3ccccc3)n2)c(C)c1 (centres unmarked)", "measuredMetric": "pIC50", "result": "6.00 to 7.00"}

Data request, read-out pIC50, for O=C(O)C[C@H](NC(=O)c1cc(O)n(-c2ccc(F)cc2F)n1)c1cccnc1 4.52 to 6.00

Find the recorded pIC50 belonging to Cc1ccc(C)c(-n2nc(C(=O)NC(CC(=O)O)c3ccc(C#N)cc3)cc2O)c1 (centres unmarked) and report it. 4.52 to 6.00

What pIC50 value was documented for this compound, Cc1ccc(C)c(-n2nc(C(=O)NC(CC(=O)O)c3cccc(C(F)(F)F)c3)cc2O)c1 (centres unmarked) ? 4.52 to 6.00

Tell me the measured pIC50 of COc1ccc(C(CC(=O)O)NC(=O)c2cc(O)n(-c3ccccc3)n2)c(C)c1C (centres unmarked) , please. 4.52 to 6.00
